experiment: Fluorescence emission spectra and quantum yield relative to HITC; format: physicochemical; details: Water
READOUT NAME: Emission max. (nm)
The reply should be a number in nm, with the unit left off.

Emission max. for C[N+]1=C(C=CC=CC=CC=C2N(CCCCCC(=O)NCCOCCOCCOCCC(=O)O)c3ccc(S(=O)(=O)[O-])cc3C2(C)CCCCS(=O)(=O)O)C(C)(C)c2c(I)cc(I)cc21 (stereo not drawn) is 777

Emission max. for CC1(CCCCCC(=O)O)C(/C=C/C=C/C=C/C=C2\N(CCCCS(=O)(=O)O)c3ccc(S(=O)(=O)[O-])cc3C2(C)CCCCS(=O)(=O)O)=[N+](CCCS(=O)(=O)O)c2cc(I)c(I)c(I)c21 (stereo not drawn) is 787

Emission max. for "CN1\C(=C/C=C/C=C/C=C/C2=[N+](C)c3ccc(I)cc3C2(C)C)C(C)(C)c2cc(I)ccc21.[I-]" is 779

###

test: Phototoxicity (glow lamp) and dark toxicity by hemolysis of bovine erythrocytes; assay type: cell-based; details: bovine, bovine erythrocytes; Glow Lamp, 0.5 μM, exposure 30 min
Consider the following compounds; for each one, report its hemolysis at 30 min, 0.5 µM.
The reply should be a number in %, with the unit left off.

hemolysis at 30 min, 0.5 µM for "CN1\C(=C/C=C/C=C/C=C/C2=[N+](C)c3cc(I)c(I)c(I)c3C2(C)C)C(C)(C)c2c1cc(I)c(I)c2I.[I-]" is 46

hemolysis at 30 min, 0.5 µM for "CN1\C(=C/C=C/C=C/C=C/C2=[N+](C)c3ccc(I)cc3C2(C)C)C(C)(C)c2cc(I)ccc21.[I-]" is 83

hemolysis at 30 min, 0.5 µM for CC1(CCCCCC(=O)O)C(/C=C/C=C/C=C/C=C2\N(CCCS(=O)(=O)O)c3cc(I)c(I)c(I)c3C2(C)CCCCCC(=O)O)=[N+](CCCS(=O)(=O)[O-])c2cc(I)c(I)c(I)c21 (stereo not shown) is 74

hemolysis at 30 min, 0.5 µM for "CN1\C(=C/C=C/C=C/C=C/C2=[N+](C)c3cc(I)cc(I)c3C2(C)C)C(C)(C)c2c(I)cc(I)cc21.[I-]" is 75

###

assay: Fluorescence emission spectra and quantum yield relative to HITC; assay type: physicochemical; conditions: Water
Consider the following molecules; for each one, report its Emission max..
The reply should be a number in nm, with the unit left off.

Emission max. for CC1(CCCCCC(=O)O)C(/C=C/C=C/C=C/C=C2\N(CCCS(=O)(=O)O)c3cc(I)c(I)c(I)c3C2(C)CCCCCC(=O)O)=[N+](CCCS(=O)(=O)[O-])c2cc(I)c(I)c(I)c21 (centres unmarked) is 786

Emission max. for C[N+]1=C(C=CC=CC=CC=C2N(CCCCS(=O)(=O)[O-])c3ccc(S(=O)(=O)O)cc3C2(C)C)C(CCCCCC(=O)O)c2c(I)cc(I)cc21 (centres unmarked) is 776

Emission max. for CN1\C(=C/C=C/C=C/C=C/C2=[N+](C)c3cc(I)c(I)c(I)c3C2(C)CCCCCC(=O)N2CC[N+]3(CC2)CC[N+]2(CCNCC2)CC3)C(C)(CCCCCC(=O)N2CC[N+]3(CC2)CC[N+]2(CCNCC2)CC3)c2c1cc(I)c(I)c2I.[Cl-].[Cl-].[Cl-].[Cl-].[Cl-] (centres unmarked) is 782

Emission max. for CC1(C)C(/C=C/C=C/C=C/C=C2\N(CCCCS(=O)(=O)[O-])c3ccc4ccccc4c3C2(C)C)=[N+](CCCCS(=O)(=O)[O-])c2ccc3ccccc3c21.[Na+] [ICG, Indocyanine green, reference compound] is 810

###

test system: bovine erythrocytes; assay: Phototoxicity (glow lamp) and dark toxicity by hemolysis of bovine erythrocytes; type: cell-based; details: Dark, 50 μM
Consider the following compounds; for each one, report its Hemolysis.
The reply should be a number in %, with the unit left off.

Hemolysis for CN1\C(=C/C=C/C=C/C=C/C2=[N+](C)c3cc(I)c(I)c(I)c3C2(C)C)C(C)(C)c2c1cc(I)c(I)c2I.[I-] [I-76] is 12

Hemolysis for CN1\C(=C/C=C/C=C/C=C/C2=[N+](C)c3cc(I)cc(I)c3C2(C)CCCCCC(=O)O)C(C)(CCCCCC(=O)O)c2c(I)cc(I)cc21.[I-] (stereo not shown) [I-79] is 4

Hemolysis for CN1\C(=C/C=C/C=C/C=C/C2=[N+](C)c3cc(I)cc(I)c3C2(C)C)C(C)(C)c2c(I)cc(I)cc21.[I-] [I-71] is 30

Hemolysis for CN1\C(=C/C=C/C=C/C=C/C2=[N+](C)c3ccc(I)cc3C2(C)C)C(C)(C)c2cc(I)ccc21.[I-] [I-25] is 51

###

test: Absorption spectra and extinction coefficients of dyes; type: physicochemical; conditions: Methanol
READOUT NAME: Absorption max.

Absorption max. for CC1(CCCCCC(=O)O)C(/C=C/C=C/C=C/C=C2\N(CCCS(=O)(=O)O)c3cc(I)c(I)c(I)c3C2(C)CCCCCC(=O)O)=[N+](CCCS(=O)(=O)[O-])c2cc(I)c(I)c(I)c21 (stereo not drawn) is 765 nm

Absorption max. for CC1(CCCCCC(=O)N2CC[N+]3(CC2)CC[N+]2(CCNCC2)CC3)C(/C=C/C=C/C=C/C=C2\N(CCCS(=O)(=O)[O-])c3cc(I)c(I)c(I)c3C2(C)CCCCCC(=O)N2CC[N+]3(CC2)CC[N+]2(CCNCC2)CC3)=[N+](CCCS(=O)(=O)[O-])c2cc(I)c(I)c(I)c21.[Cl-].[Cl-].[Cl-] (stereo not drawn) is 766 nm

Absorption max. for "CN1/C(=C\C=C2/CCCC(/C=C/C3=[N+](C)c4ccc(I)cc4C3(C)C)=C2Cl)C(C)(C)c2cc(I)ccc21.[I-]" is 784 nm
